pIC50: −log10 of the molar value.
The following are reported pIC50 results, target or system Acetylcholinesterase (Homo sapiens).

{"QUERY SMILES": "COc1ccccc1/C=C1\\CN(C(=O)[C@H]2C[C@H]3CCCN3[C@]23C(=O)Nc2cc(Cl)ccc23)C/C(=C\\c2ccccc2OC)C1=O", "pIC50": 4.84}
{"QUERY SMILES": "O=C1/C(=C/c2cccc([N+](=O)[O-])c2)CN(C(=O)[C@H]2C[C@H]3CCCN3[C@]23C(=O)Nc2cc(Cl)ccc23)C/C1=C\\c1cccc([N+](=O)[O-])c1", "pIC50": 5.37}
{"QUERY SMILES": "O=C1/C(=C/c2ccccc2Cl)CN(C(=O)[C@H]2C[C@H]3CCCN3[C@]23C(=O)Nc2cc(Cl)ccc23)C/C1=C\\c1ccccc1Cl", "pIC50": 5.29}
{"QUERY SMILES": "O=C1/C(=C/c2cccc3ccccc23)CN(C(=O)[C@H]2C[C@H]3CCCN3[C@]23C(=O)Nc2cc(Cl)ccc23)C/C1=C\\c1cccc2ccccc12", "pIC50": 5.24}
{"QUERY SMILES": "O=C1/C(=C/c2ccccc2)CN(C(=O)[C@H]2C[C@H]3CCCN3[C@]23C(=O)Nc2cc(Cl)ccc23)C/C1=C\\c1ccccc1", "pIC50": 4.80}
{"QUERY SMILES": "Cc1ccccc1/C=C1\\CN(C(=O)[C@H]2C[C@H]3CCCN3[C@]23C(=O)Nc2cc(Cl)ccc23)C/C(=C\\c2ccccc2C)C1=O", "pIC50": 4.95}
{"QUERY SMILES": "O=C1/C(=C/c2ccc(Cl)cc2)CN(C(=O)[C@H]2C[C@H]3CCCN3[C@]23C(=O)Nc2cc(Cl)ccc23)C/C1=C\\c1ccc(Cl)cc1", "pIC50": 5.47}
{"QUERY SMILES": "O=C1/C(=C/c2ccc(Cl)cc2Cl)CN(C(=O)[C@H]2C[C@H]3CCCN3[C@]23C(=O)Nc2cc(Cl)ccc23)C/C1=C\\c1ccc(Cl)cc1Cl", "pIC50": 5.48}
{"QUERY SMILES": "O=C1/C(=C/c2ccc(F)cc2)CN(C(=O)[C@H]2C[C@H]3CCCN3[C@]23C(=O)Nc2cc(Cl)ccc23)C/C1=C\\c1ccc(F)cc1", "pIC50": 4.65}
{"QUERY SMILES": "O=C1/C(=C/c2ccccc2F)CN(C(=O)[C@H]2C[C@H]3CCCN3[C@]23C(=O)Nc2cc(Cl)ccc23)C/C1=C\\c1ccccc1F", "pIC50": 4.53}
{"QUERY SMILES": "Cc1ccc(/C=C2\\CN(C(=O)[C@H]3C[C@H]4CCCN4[C@]34C(=O)Nc3cc(Cl)ccc34)C/C(=C\\c3ccc(C)cc3)C2=O)cc1", "pIC50": 5.12}

* * *

Catalogue of pIC50 values
target: UniProtKB P81908; experiment: Inhibition of equine serum BuChE using S-butyrylthiocholine chloride as substrate incubated for 15 mins prior to substrate addition measured after 30 mins by Ellman's method
Sequence (P81908 whole entry): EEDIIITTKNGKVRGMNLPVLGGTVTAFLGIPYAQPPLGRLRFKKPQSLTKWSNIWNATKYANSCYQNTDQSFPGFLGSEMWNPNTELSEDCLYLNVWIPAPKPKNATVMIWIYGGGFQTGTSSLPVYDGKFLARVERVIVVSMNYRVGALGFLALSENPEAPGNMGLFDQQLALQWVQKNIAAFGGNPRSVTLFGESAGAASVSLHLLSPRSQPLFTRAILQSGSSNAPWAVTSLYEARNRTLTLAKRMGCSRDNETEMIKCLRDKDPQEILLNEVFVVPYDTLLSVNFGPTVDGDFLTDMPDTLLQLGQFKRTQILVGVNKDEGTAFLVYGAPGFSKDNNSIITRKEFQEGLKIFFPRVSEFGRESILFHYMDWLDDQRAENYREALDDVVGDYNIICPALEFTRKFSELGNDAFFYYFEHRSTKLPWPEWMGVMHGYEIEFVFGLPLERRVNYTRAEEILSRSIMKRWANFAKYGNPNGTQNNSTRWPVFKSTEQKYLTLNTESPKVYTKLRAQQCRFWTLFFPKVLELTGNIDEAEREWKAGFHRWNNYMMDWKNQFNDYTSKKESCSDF
pIC50: −log10 of the molar value.
READOUT TYPE: pIC50

{"QUERY SMILES": "O=C1/C(=C/c2ccc(Cl)cc2Cl)CN(C(=O)[C@H]2C[C@H]3CCCN3[C@]23C(=O)Nc2cc(Cl)ccc23)C/C1=C\\c1ccc(Cl)cc1Cl", "TARGET SYSTEM": "UniProtKB P81908", "NUMERIC RESULT": 4.70}
{"QUERY SMILES": "O=C1/C(=C/c2cccc([N+](=O)[O-])c2)CN(C(=O)[C@H]2C[C@H]3CCCN3[C@]23C(=O)Nc2cc(Cl)ccc23)C/C1=C\\c1cccc([N+](=O)[O-])c1", "TARGET SYSTEM": "UniProtKB P81908", "NUMERIC RESULT": 4.76}
{"QUERY SMILES": "O=C1/C(=C/c2cccc3ccccc23)CN(C(=O)[C@H]2C[C@H]3CCCN3[C@]23C(=O)Nc2cc(Cl)ccc23)C/C1=C\\c1cccc2ccccc12", "TARGET SYSTEM": "UniProtKB P81908", "NUMERIC RESULT": 5.02}
{"QUERY SMILES": "O=C1/C(=C/c2ccccc2F)CN(C(=O)[C@H]2C[C@H]3CCCN3[C@]23C(=O)Nc2cc(Cl)ccc23)C/C1=C\\c1ccccc1F", "TARGET SYSTEM": "UniProtKB P81908", "NUMERIC RESULT": 5.50}
{"QUERY SMILES": "COc1ccccc1/C=C1\\CN(C(=O)[C@H]2C[C@H]3CCCN3[C@]23C(=O)Nc2cc(Cl)ccc23)C/C(=C\\c2ccccc2OC)C1=O", "TARGET SYSTEM": "UniProtKB P81908", "NUMERIC RESULT": 5.11}
{"QUERY SMILES": "O=C1/C(=C/c2ccc(F)cc2)CN(C(=O)[C@H]2C[C@H]3CCCN3[C@]23C(=O)Nc2cc(Cl)ccc23)C/C1=C\\c1ccc(F)cc1", "TARGET SYSTEM": "UniProtKB P81908", "NUMERIC RESULT": 5.44}
{"QUERY SMILES": "O=C1/C(=C/c2ccccc2Cl)CN(C(=O)[C@H]2C[C@H]3CCCN3[C@]23C(=O)Nc2cc(Cl)ccc23)C/C1=C\\c1ccccc1Cl", "TARGET SYSTEM": "UniProtKB P81908", "NUMERIC RESULT": 4.76}
{"QUERY SMILES": "Cc1ccccc1/C=C1\\CN(C(=O)[C@H]2C[C@H]3CCCN3[C@]23C(=O)Nc2cc(Cl)ccc23)C/C(=C\\c2ccccc2C)C1=O", "TARGET SYSTEM": "UniProtKB P81908", "NUMERIC RESULT": 4.82}
{"QUERY SMILES": "Cc1ccc(/C=C2\\CN(C(=O)[C@H]3C[C@H]4CCCN4[C@]34C(=O)Nc3cc(Cl)ccc34)C/C(=C\\c3ccc(C)cc3)C2=O)cc1", "TARGET SYSTEM": "UniProtKB P81908", "NUMERIC RESULT": 4.65}
{"QUERY SMILES": "O=C1/C(=C/c2ccc(Cl)cc2)CN(C(=O)[C@H]2C[C@H]3CCCN3[C@]23C(=O)Nc2cc(Cl)ccc23)C/C1=C\\c1ccc(Cl)cc1", "TARGET SYSTEM": "UniProtKB P81908", "NUMERIC RESULT": 4.55}
{"QUERY SMILES": "O=C1/C(=C/c2ccccc2)CN(C(=O)[C@H]2C[C@H]3CCCN3[C@]23C(=O)Nc2cc(Cl)ccc23)C/C1=C\\c1ccccc1", "TARGET SYSTEM": "UniProtKB P81908", "NUMERIC RESULT": 4.81}
